Consider the following compounds and their measured IC50 readings.
Tested on: Epithelial cell line MDCK
Measurement Protocol: Neutral red test of cell viability in epithelial cells of the distal renal tubule
Format: cell-based, canine
Condition Context: 50% reduction of cell viability after 24 hours

Study these solved cases before continuing.
- Compound: "O=C([O-])CN1CCN(CC(=O)[O-])CCN(CC(=O)NCCNC(=O)c2c(I)c(C(=O)NCCNC(=O)CN3CCN(CC(=O)[O-])CCN(CC(=O)[O-])CCN(CC(=O)[O-])CC3)c(I)c(C(=O)NCCNC(=O)CN3CCN(CC(=O)[O-])CCN(CC(=O)[O-])CCN(CC(=O)[O-])CC3)c2I)CCN(CC(=O)[O-])CC1.[Gd+3].[Gd+3].[Gd+3]"
  Assayed System: "Epithelial cell line MDCK"
  Result: "1170 μmol of I eq/ml"
- Compound: "O=C([O-])CN1CCN(CC(=O)[O-])CCN(CC(O)CNC(=O)c2c(I)c(C(=O)NCC(O)CN3CCN(CC(=O)[O-])CCN(CC(=O)[O-])CCN(CC(=O)[O-])CC3)c(I)c(C(=O)NCC(O)CN3CCN(CC(=O)[O-])CCN(CC(=O)[O-])CCN(CC(=O)[O-])CC3)c2I)CCN(CC(=O)[O-])CC1.[Gd+3].[Gd+3].[Gd+3] (stereo not shown)"
  Assayed System: "Epithelial cell line MDCK"
  Result: "788 μmol of I eq/ml"
- Compound: "CC(C(=O)NCC(=O)NCCNC(=O)c1c(I)c(C(=O)NCCNC(=O)CNC(=O)C(C)N2CCN(CC(=O)[O-])CCN(CC(=O)[O-])CCN(CC(=O)[O-])CC2)c(I)c(C(=O)NCCNC(=O)CNC(=O)C(C)N2CCN(CC(=O)[O-])CCN(CC(=O)[O-])CCN(CC(=O)[O-])CC2)c1I)N1CCN(CC(=O)[O-])CCN(CC(=O)[O-])CCN(CC(=O)[O-])CC1.[Gd+3].[Gd+3].[Gd+3] (stereo not shown)"
  Assayed System: "Epithelial cell line MDCK"
  Result: "930 μmol of I eq/ml"

With those in mind, consider the next compound.
Value of IC50 reported for the compound O=C([O-])CN1CCN(CC(=O)[O-])CCN([C@H](CO)[C@H](O)CO)CCN(CC(=O)[O-])CC1.[Gd+3] (racemic) [Gadobutrol, reference compound] is 153 μmol of I eq/ml

Source of measurements: patent US7208140B2
